- System: Plasmodium falciparum
- ASSAY NOTES: Antimalarial activity against chloroquine-sensitive Plasmodium falciparum NF54 infected in RBC after 72 hrs by [3H]hypoxanthine incorporation assay in presence of 0.5 % albumax
- Type: functional, organism-based
pIC50: −log10 of the molar value.
METRIC: pIC50

Task: Need pIC50, item Cc1cc(Nc2ccc(C(=O)N[C@@H](Cc3ccccc3)[C@H](O)CN[C@H](C)c3ccccc3)cc2)cc(C)n1
Result: 8.06

a = CN(C)c1cccc(C(=O)N[C@@H](Cc2ccccc2)[C@H](O)CNC(C)(C)c2ccccc2)c1
b = CCCN(CCC)C(=O)c1cccc(C(=O)N[C@@H](Cc2ccccc2)[C@H](O)CNC(C)(C)c2ccccc2F)c1
Task: Hey, between a and b which has a smaller measured pIC50? Bench note: the answer is the label of the chosen record.
Result: a

====

Entries annotated with measured IC50
- Test system: Plasmodium falciparum
- ASSAY NOTES: Antimalarial activity against chloroquine-sensitive Plasmodium falciparum NF54 infected in RBC after 24 hrs by [3H]hypoxanthine incorporation assay in presence of 0.5 % albumax
- Format: functional, organism-based

Guide cases for IC50, answers given:
Task: For Plasmodium falciparum, provide IC50 of C[C@@H](NC[C@@H](O)[C@H](Cc1ccccc1)NC(=O)c1cccc(O)c1CN1CCCCC1)c1ccccc1 please.
Result: 235 nM

Task: Identify the measured IC50 of C[C@@H](NC[C@@H](O)[C@H](Cc1ccccc1)NC(=O)c1ccc(C(=O)N2CCCCC2)cc1)c1ccccc1 for Plasmodium falciparum.
Result: > 500 nM

Task: Param readout = IC50; param system = Plasmodium falciparum; param query = CCCN(CCC)Cc1cc(Nc2ccc(C(=O)N[C@@H](Cc3ccccc3)[C@H](O)CN[C@H](C)c3ccccc3)cc2)ccc1O ; response: value
Result: 77 nM

Task: What reported IC50 corresponds to C[C@@H](NC[C@@H](O)[C@H](Cc1ccccc1)NC(=O)c1ccc(N2CCN(C)CC2)cc1)c1ccccc1 on Plasmodium falciparum?
Result: > 500 nM

Task: Form field - read-out: IC50; system: Plasmodium falciparum; submitted item: C[C@@H](NC[C@@H](O)[C@H](Cc1ccccc1)NC(=O)c1ccc(N(C)C2CCN(C)CC2)cc1)c1ccccc1
Result: > 500 nM

Task: Give recorded IC50 with Plasmodium falciparum for the following compound: C[C@@H](NC[C@@H](O)[C@H](Cc1ccccc1)NC(=O)c1ccc(NC2CCN(C)CC2)cc1)c1ccccc1
Result: > 500 nM

***
Task: Can you look up IC50 on Plasmodium falciparum for CCCN(CCC)Cc1cc(C(C)NC[C@@H](O)[C@H](Cc2ccccc2)NC(=O)c2ccc(N3CCN(C)CC3)cc2)ccc1O (stereo partly drawn) ?
Result: 90 nM

Task: Can you look up IC50 on Plasmodium falciparum for CCCN(CCC)C(=O)c1cccc(C(=O)N[C@@H](Cc2ccccc2)[C@H](O)CN[C@H](C)c2ccccc2)c1 ?
Result: > 500 nM

====

- Tested on: Plasmodium falciparum
- ASSAY NOTES: Antimalarial activity against chloroquine-sensitive Plasmodium falciparum NF54 infected in RBC after 72 hrs by [3H]hypoxanthine incorporation assay in presence of 0.5 % albumax
- Format: functional, organism-based
pIC50: −log10 of the molar value.
METRIC: pIC50

In the examples that follow, each entry is paired with its recorded pIC50.
Task: Fill in the blank: the reported pIC50 of C[C@@H](NC[C@@H](O)[C@H](Cc1ccccc1)NC(=O)c1ccc(CN2CCCCC2)c(O)c1)c1ccccc1 is ____.
Result: 8.31

Task: Need pIC50, item C[C@@H](NC[C@@H](O)[C@H](Cc1ccccc1)NC(=O)c1ccc(N2CCN(C)CC2)cc1)c1ccccc1
Result: 8.06

Task: Look at this compound and give its reported pIC50. CC(=O)Nc1cccc(C(=O)N[C@@H](Cc2ccccc2)[C@H](O)CNC(C)(C)c2ccccc2)c1
Result: 7.36

I = CCN(CC)Cc1cc(C(=O)N[C@@H](Cc2ccccc2)[C@H](O)CN[C@H](C)c2ccccc2)ccc1O
II = C[C@@H](NC[C@@H](O)[C@H](Cc1ccccc1)NC(=O)c1cccc(C(=O)N2CCN(C)CC2)c1)c1ccccc1
Task: Smaller pIC50 value, I vs II ? Field: selected label. Fill in the label of the entry you choose.
Result: I

====

- Tested on: Plasmodium falciparum
- ASSAY NOTES: Antimalarial activity against chloroquine-sensitive Plasmodium falciparum NF54 infected in RBC after 72 hrs by [3H]hypoxanthine incorporation assay in presence of 0.5 % albumax
- Type: functional, organism-based
pIC50: −log10 of the molar value.
METRIC: pIC50

Example results:
Task: Which pIC50 is reported with Plasmodium falciparum for this entry: CCCN(CCC)C(=O)c1cccc(C(=O)N[C@@H](Cc2ccccc2)[C@H](O)CNC2CCCC2)c1 ?
Result: 8.15

Task: Missing value: pIC50, Plasmodium falciparum, entry CCCN(CCC)C(=O)c1cccc(C(=O)N[C@@H](Cc2ccccc2)[C@H](O)CNC(C)C)c1 . Fill in?
Result: 7.11

Task: Notebook entry, Plasmodium falciparum assay: pIC50 of COc1cccc(C(=O)N[C@@H](Cc2ccccc2)[C@H](O)CNC(C)(C)c2ccccc2)c1 = ?
Result: 6.46

Task: Which pIC50 is reported with Plasmodium falciparum for this entry: CCCN(CCC)Cc1cc(CNC[C@@H](O)[C@H](Cc2ccccc2)NC(=O)c2ccc(N3CCN(C)CC3)cc2)ccc1O ?
Result: 7.19

1 = CCCN(CCC)C(=O)c1cccc(C(=O)N[C@@H](Cc2ccccc2)[C@H](O)CNC(C)(C)c2ccc(OC)cc2)c1
2 = C[C@@H](NC[C@@H](O)[C@H](Cc1ccccc1)NC(=O)c1ccc(N2CCN(Cc3ccccc3)CC2)cc1)c1ccccc1
3 = C[C@@H](NC[C@@H](O)[C@H](Cc1ccccc1)NC(=O)c1cccc(O)c1CN1CCCCC1)c1ccccc1
4 = CCCN(CCC)C(=O)c1cccc(C(=O)N[C@@H](Cc2ccccc2)[C@H](O)CN[C@H](C)c2ccccc2)c1
5 = CC(NC[C@@H](O)[C@H](Cc1ccccc1)NC(=O)c1ccc(N2CCN(C)CC2)cc1)c1ccc(O)c(CN2CCCCC2)c1 (some centres not stated)
Task: Put the items in sequence by pIC50, from largest down. Your task in answering is to list the labels in the requested order.
Result: 4, 3, 1, 2, 5

====

- System: Plasmodium falciparum
- ASSAY NOTES: Antimalarial activity against chloroquine-sensitive Plasmodium falciparum NF54 infected in RBC after 72 hrs by [3H]hypoxanthine incorporation assay in presence of 0.5 % albumax
- Format: functional, organism-based
pIC50: −log10 of the molar value.
METRIC: pIC50

Task: Item CCCN(CCC)C(=O)c1cccc(C(=O)N[C@@H](Cc2ccccc2)[C@H](O)CNCCc2ccccc2)c1 has what recorded pIC50?
Result: 6.73

I = CCCN(CCC)C(=O)c1cccc(C(=O)N[C@@H](Cc2ccccc2)[C@H](O)CNC(C)(C)c2ccc(F)cc2)c1
II = CCCNC(=O)c1cccc(C(=O)N[C@@H](Cc2ccccc2)[C@H](O)CN[C@H](C)c2ccccc2)c1
Task: Pick one: I or II . Which has the bigger pIC50 number? State the label of the item chosen.
Result: II
(II: 7.92, I: 7.62)

====

- ASSAY NOTES: Metabolic stability in mouse liver microsomes
- Type: ADME, Microsome
- RECORDED CONDITIONS: read-out: Stability
METRIC: microsomal CLint (µL/min/mg)

Task: Recorded microsomal CLint of CCCN(CCC)Cc1cc(C2CCC(NC[C@@H](O)[C@H](Cc3ccccc3)NC(=O)c3ccc(N4CCN(C)CC4)cc3)CC2)ccc1O (stereo partly specified) , please.
Result: 74

1 = C[C@@H](NC[C@@H](O)[C@H](Cc1ccccc1)NC(=O)c1cccc(S(=O)(=O)N2CCN(C)CC2)c1)c1ccccc1
2 = C[C@@H](NC[C@@H](O)[C@H](Cc1ccccc1)NC(=O)c1ccc(C(=O)N2CCN(C)CC2)cc1)c1ccccc1
Task: Given 1 and given 2 , which shows the smaller recorded microsomal CLint? Give the label of your selection.
Result: 2

====

- ASSAY NOTES: Metabolic stability in mouse liver microsomes
- Type: ADME, Microsome
- RECORDED CONDITIONS: read-out: Stability
METRIC: microsomal CLint (µL/min/mg)
Just the number in µL/min/mg, nothing appended.

Task: What measured microsomal CLint goes with C[C@@H](NC[C@@H](O)[C@H](Cc1ccccc1)NC(=O)c1ccc(N(C)C2CCN(C)CC2)cc1)c1ccccc1 ?
Result: 71

Task: Consider the compound C[C@@H](NC[C@@H](O)[C@H](Cc1ccccc1)NC(=O)c1ccc(Nc2ccc(CN3CCCCC3)c(O)c2)cc1)c1ccccc1 and give its measured microsomal CLint.
Result: 415

Task: Which microsomal CLint reading was recorded for the compound C[C@@H](NC[C@@H](O)[C@H](Cc1ccccc1)NC(=O)c1ccc(N2CCN(C)CC2)cc1)c1ccccc1 ?
Result: 80

Task: Which microsomal CLint value is on record for CCCN(CCC)Cc1cc(CNC[C@@H](O)[C@H](Cc2ccccc2)NC(=O)c2ccc(N3CCN(C)CC3)cc2)ccc1O ?
Result: 90

Task: For the compound C[C@@H](NC[C@@H](O)[C@H](Cc1ccccc1)NC(=O)c1ccc(N(C)c2ccncc2)cc1)c1ccccc1 , what microsomal CLint is on record?
Result: 180

// switching to the query compound
Task: Which microsomal CLint value is on record for Cc1cc(Nc2ccc(C(=O)N[C@@H](Cc3ccccc3)[C@H](O)CN[C@H](C)c3ccccc3)cc2)ccn1 ?
Result: 69
